- procedure-text: TROY pathway blockers in reporter cells – Q293 LMP1-TROYcd cells, NF-kB luciferase, uHTS, primary screen (AID 1347056)
- condition-notes: 4 h, at 10 µM
About 3,600 (1%) of roughly 360,000 compounds were called active.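 The calls were made as follows: active = compounds whose plate-normalised and pattern-corrected inhibition of the luciferase reporter signal at the single screening dose is 50% or more; inactive = the rest.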 Many of the other results were omitted from the sample, so actives are more common in it than they were.
Please answer using one outcome listed in active, inactive

Request: Could you kindly confirm the outcome this assay logged for O=[N+]([O-])c1cc(S(=O)(=O)NCCc2ccccn2)ccc1Cl ?
Response: inactive

Request: Hello, I am checking results. What call was entered for CCOC(=O)Cn1c(O)c(N=NC(=O)CNC(=O)Cc2ccccc2)c2ccccc21 ?
Response: inactive

Request: How was COc1ccc(-c2noc(CNC(=O)C(C)Oc3ccccc3)n2)cc1 (centres undefined) classified in this test?
Response: inactive

Request: Call for entry Cc1ccc(CSc2nc(-c3ccccc3)c(C#N)c(=O)[nH]2)cc1 :
Response: active

###

- procedure-text: TROY pathway blockers in reporter cells – Q293 LMP1-TROYcd cells, NF-kB luciferase, uHTS, primary screen (AID 1347056)
- condition-notes: 4 h, at 10 µM
Among all 360,000 compounds or so, about 3,600 (1%) were called active.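 Rule for the calls: active = compounds whose plate-normalised and pattern-corrected inhibition of the luciferase reporter signal at the single screening dose is 50% or more; inactive = the rest.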 For the sample, actives were picked, then their nearest neighbours and some compounds at random.
Assign a class; possible classes are active, inactive

Request: Just curious, what result did C/C(=N\N(C)C)c1ccc(OCCOc2ccc([N+](=O)[O-])cc2)cc1 get here?
Response: inactive

Request: Identify the outcome logged in this assay for the compound shown: O=C(CNC(=O)c1ccccc1)NCC(=O)OCc1ccc(Cl)cc1
Response: inactive

Request: Outcome? O=C(CSc1nc(Nc2ccccc2)nc(N2CCOCC2)n1)Nc1cc(Cl)ccc1O
Response: active

Request: Which outcome did this test record for the compound CC(Oc1ccccc1)C(=O)Nc1oc(-c2ccco2)c(-c2ccco2)c1C#N (centres undefined) ?
Response: inactive

###

- procedure-text: TROY pathway blockers in reporter cells – Q293 LMP1-TROYcd cells, NF-kB luciferase, uHTS, primary screen (AID 1347056)
- condition-notes: 4 h, at 10 µM
In all, about 360,000 compounds went through this assay and about 3,600 (1%) were called active.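 How the source made its calls: active means compounds whose plate-normalised and pattern-corrected inhibition of the luciferase reporter signal at the single screening dose is 50% or more; inactive means the rest.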 The list comes from a sample in which actives are over-represented; it also holds close analogues and randomly drawn compounds.
Assign a class; possible classes are active, inactive

Request: Test call for this compound, please: O=C(CSC(=S)N1CCOCC1)c1ccccc1
Response: active

Request: Kindly provide the recorded test outcome for the following compound: O=C(C1CCC1)N1CCN(S(=O)(=O)c2ccc([N+](=O)[O-])cc2)CC1
Response: inactive

Request: Test call for this compound, please: Cc1cc(C(=O)COC(=O)CNC(=O)c2ccc(F)cc2)c(C)n1Cc1ccco1
Response: active

Request: What outcome does the record of this test show for COc1ccccc1NC(=O)N1CCCC1C(=O)NCc1cccs1 (centres undefined) ?
Response: inactive

###

- procedure-text: TROY pathway blockers in reporter cells – Q293 LMP1-TROYcd cells, NF-kB luciferase, uHTS, primary screen (AID 1347056)
- condition-notes: 4 h, at 10 µM, active compounds read high
Screen size: about 360,000 compounds; about 3,600 (1%) were called active. What follows is part of a selection rich in actives, with near analogues and random picks from the rest.
Assign inhibition to each entry below.
Answer with a number only, understood to be in %.

Request: Quote inhibition reported for COCCN(C(=O)CCC(=O)Nc1ccccn1)C(C(=O)NCCC(C)C)c1ccc(OC)cc1 (stereo not drawn) please.
Response: 5.49

Request: Give the measured inhibition for O=C(Nc1cc(S(=O)(=O)N2CCOCC2)ccc1OCC(F)(F)F)c1ccc(N2CCCC2=O)cc1
Response: 1.27

Request: Using the record for COc1cccc(OCC(=O)NCCS(=O)(=O)N2CCN(c3ccccc3)CC2)c1 , state its measured inhibition.
Response: 17.7
